% inhibition apPOL 180' values for the compounds below.
Target: P. falciparum apicoplast DNA polymerase (Pf-apPOL) (Plasmodium falciparum, UniProt Q8ILY1)
Sequence (Q8ILY1 entry or part of it): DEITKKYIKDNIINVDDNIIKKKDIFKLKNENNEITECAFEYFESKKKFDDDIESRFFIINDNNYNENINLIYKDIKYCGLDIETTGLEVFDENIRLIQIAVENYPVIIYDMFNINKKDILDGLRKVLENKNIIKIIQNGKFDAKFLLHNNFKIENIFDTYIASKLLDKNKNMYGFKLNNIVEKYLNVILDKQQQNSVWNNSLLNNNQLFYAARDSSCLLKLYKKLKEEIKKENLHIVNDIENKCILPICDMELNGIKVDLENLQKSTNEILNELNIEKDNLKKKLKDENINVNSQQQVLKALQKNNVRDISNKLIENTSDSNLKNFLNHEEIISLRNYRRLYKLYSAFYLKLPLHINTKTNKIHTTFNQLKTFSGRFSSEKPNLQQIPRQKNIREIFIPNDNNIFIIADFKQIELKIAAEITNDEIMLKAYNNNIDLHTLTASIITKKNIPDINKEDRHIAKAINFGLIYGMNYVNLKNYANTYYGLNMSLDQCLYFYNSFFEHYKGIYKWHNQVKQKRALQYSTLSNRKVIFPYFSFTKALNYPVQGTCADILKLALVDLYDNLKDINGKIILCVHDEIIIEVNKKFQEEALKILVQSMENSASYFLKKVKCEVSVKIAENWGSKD
Assay: Fluorescence-based high-throughput DNA polymerase assay (molecular beacon), primary screen and dose-response;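 for % inhibition apPOL 180': test concentration in µM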
Type: biochemical
Settings: DRC-2, 180', concentration 10
assayEndpoint: % inhibition apPOL 180' (%)

compound: CC1=NNC(=O)C1Oc1ccc(Cl)cc1Cl (stereo not drawn)
unitLabel: %
experimentalResult: -1.09
--
compound: COc1ccccc1CCC(=O)N1CCc2c(nc3cc(-c4ccccc4)[nH]n3c2=O)C1
unitLabel: %
experimentalResult: 48
--
compound: CCOc1ccccc1-c1nc(-c2ccc(=O)[nH]c2)no1 [Molecule 76, CCOc1ccccc1c1onc(n1)c1ccc(=O)[nH]c1]
unitLabel: %
experimentalResult: 8
--
compound: O=C(Nc1nnc(-c2cccs2)o1)c1ccc([N+](=O)[O-])o1
unitLabel: %
experimentalResult: 15
--
compound: COc1ccc2c(c1)CCc1c-2nc2ccc(Br)cc2c1C(=O)O
unitLabel: %
experimentalResult: 20
--
compound: CSCCC(C)(O)CNC(=O)C1CC1 (stereo not drawn)
unitLabel: %
experimentalResult: 17
--
compound: Cc1nn(CC(=O)NCCSCc2ccco2)c(C)c1Br
unitLabel: %
experimentalResult: 3.79
--
compound: O=C(Nc1nnc(-c2ccno2)o1)c1ccc2ncsc2c1
unitLabel: %
experimentalResult: 14
--
compound: CN1CC(=Cc2ccco2)C(=O)C(=Cc2ccco2)C1
unitLabel: %
experimentalResult: 20

###

Catalogue of molecules with associated % inhibition ApPOL 90'
Biological target: UniProt Q8ILY1
Assay: Fluorescence-based high-throughput DNA polymerase assay (molecular beacon), primary screen and dose-response
Assay type: biochemical
Details: DRC-2; 90'; concentration 10

molecule: O=C(NCC1CCN(C2CCCC2)CC1)C(=O)NC1CCCC1
% inhibition ApPOL 90': 19%
--
molecule: O=C(Cn1ccc2c(=O)[nH]ccc21)Nc1cccc(Cl)c1 [Molecule 23, O=C(Cn1ccc2c1cc[nH]c2=O)Nc1cccc(c1)Cl]
% inhibition ApPOL 90': 63%
--
molecule: CSC1=C(C#N)C(=C(C#N)C#N)NC(c2ccccc2)=N1 [Molecule 2, CSc1nc([nH]c(=C(C#N)C#N)c1C#N)c1ccccc1]
% inhibition ApPOL 90': 46%
--
molecule: CCCCSc1nnc2c(n1)OC(c1ccc([N+](=O)[O-])o1)Nc1ccccc1-2 (stereo not shown)
% inhibition ApPOL 90': 52%

###

Target: P. falciparum apicoplast DNA polymerase (Pf-apPOL) (Plasmodium falciparum, UniProt Q8ILY1)
Test: Fluorescence-based high-throughput DNA polymerase assay (molecular beacon), primary screen and dose-response
Type: biochemical
Conditions: DRC-1; concentration 10; 10'
assayEndpoint: % inhibition Apo pol 10' (%)

compound: Nc1ncnc(NC2CCCCC2)c1[N+](=O)[O-] [KU0193018]
assayEndpoint: % inhibition Apo pol 10'
experimentalResult: 7.571
--
compound: CCc1ccccc1NC(=O)c1ccc(-c2ncccc2NC(C)=O)cc1 [KU0203112]
assayEndpoint: % inhibition Apo pol 10'
experimentalResult: 40.7013
--
compound: COc1ccc(-c2occ(C(=O)O)c2C(=O)O)cc1 [KU0021536]
assayEndpoint: % inhibition Apo pol 10'
experimentalResult: 43.1098
--
compound: CCOc1ccc2cc(C3=NN(C(=O)CCC(=O)O)C(c4ccc(C)cc4)C3)c(=O)[nH]c2c1 (centres unmarked) [KU0056200]
assayEndpoint: % inhibition Apo pol 10'
experimentalResult: 12.8328
--
compound: O=C(Cn1ccc2c(=O)[nH]ccc21)Nc1ccccc1Cl [Molecule 19, O=C(Cn1ccc2c1cc[nH]c2=O)Nc1ccccc1Cl]
assayEndpoint: % inhibition Apo pol 10'
experimentalResult: 79.9443
--
compound: O=C1c2ccccc2C(=O)c2c1oc1c3c(ccc21)OCN(C1CCCC1)C3 [KU0064306]
assayEndpoint: % inhibition Apo pol 10'
experimentalResult: 48.1868
--
compound: O=C(O)c1nc(-c2ccccc2)nc2c1OCO2 [Molecule 45, OC(=O)c1nc(nc2c1OCO2)c1ccccc1]
assayEndpoint: % inhibition Apo pol 10'
experimentalResult: 46.4099
--
compound: O=C(O)c1cc([N+](=O)[O-])c(N2CCN(c3cccc(C(F)(F)F)c3)CC2)c([N+](=O)[O-])c1 [KU0076747]
assayEndpoint: % inhibition Apo pol 10'
experimentalResult: 20.6042
--
compound: Oc1cccnc1/N=C/c1cc(I)cc(I)c1O [KU0073720]
assayEndpoint: % inhibition Apo pol 10'
experimentalResult: 54.1581
--
compound: COc1ccc(C=C2Oc3c(ccc4c3CN(Cc3ccco3)CO4)C2=O)c(OC)c1 [KU0199404]
assayEndpoint: % inhibition Apo pol 10'
experimentalResult: 17.8134
--
compound: Cc1cc(C)nc(Nc2nc(CC(=O)Nc3nc(-c4ccco4)cs3)cs2)n1 [Molecule 92]
assayEndpoint: % inhibition Apo pol 10'
experimentalResult: 59.5511
